Molecular target: human GLP-1 receptor (human) (UniProt P43220)
Sequence (P43220 24-463): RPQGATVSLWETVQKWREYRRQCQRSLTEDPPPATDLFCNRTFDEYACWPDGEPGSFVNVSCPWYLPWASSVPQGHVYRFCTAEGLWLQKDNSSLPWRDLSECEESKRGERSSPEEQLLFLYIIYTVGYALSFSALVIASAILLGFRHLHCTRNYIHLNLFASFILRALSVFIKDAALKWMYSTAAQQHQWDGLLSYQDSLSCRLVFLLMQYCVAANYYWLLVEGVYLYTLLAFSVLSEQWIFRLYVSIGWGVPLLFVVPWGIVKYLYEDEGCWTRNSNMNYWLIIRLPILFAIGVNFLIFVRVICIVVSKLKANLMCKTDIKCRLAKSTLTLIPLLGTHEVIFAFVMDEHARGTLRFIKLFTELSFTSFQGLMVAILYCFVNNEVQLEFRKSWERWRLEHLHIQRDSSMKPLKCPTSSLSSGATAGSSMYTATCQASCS
Assay: cell-based or functional assay
Reported Endpoint: cAMP EC50

• IP204 (Fc fusion) HGEGTFISDYSIAMDKIHQQDFVNWLLAQKAAAGGSGSTASSGSGSATGGGGAATHTCPPCPAPEF = 850 nM
• IP396 (Fc fusion) YSEGTFTSDYSKLLERQAIDEFIAWLLKGGGGGGGSGGGGSGGGGSGGGGSACPPC = 0.11 nM
• IP333 (Fc fusion) YSEGTFISDYSIALAAAAQQDFVNWLLKGGGGGGGSGGGGSGGGGSGGGGSGGGGSGGGGSA = > 1080 nM
